tgt: pooled human IgG (human IgG1,2,3 and 4)
assay.endpoint: Enzyme Activity Endpoint Assay (purified): scIgG (ng/µL)

protein | readout.unit | recorded.measurement
PRT-336 (protein) MTITSVWTKGVTPPTPEDFRENNEDVLHAPYVANQGWYDITKTFDGKDNLLCGAATAGNMLHWWFDQNKEEIERYLKKHPEKQKIIFNNQELFDVKAAIDTKDSQTNSKLFDYFRDKAFPGLSARQLGVFPDLVLDMFINGYYLNLGKTQSTDVNRPYQDKDKRGGIFDAVFTRGVQTTLLTARHDLKNKGLNEISDLIKQELTEGKALALSHTYANVRINHVINLWGADFDAEGELIAIYVTDSDANPSIGMKKYFVGRNANGKVAISAKKIEGDNIGAQVLGLFTLSTGQDIWQKLS | ng/µL | 965
PRT-470 (protein) MVTSVWTKGVTPPTDFIYGEDVLHAPYKAGQGWYDITKTFNGKDDLLCGAATAGNMLHWWFDQNKEQIENYLKKHPEKQKINFNGEQMFDVKEAIDTKDSQLDSKLFEYFKEKAFPYLSTKHLGVFPDHVIDMFINGYRLSLTNHGPTPVKRGSKDPRGGIFDAVFTRGDQSKLLTNRHDFKEKTLKEISDLIKQELTEGKALGISHTYANVRINHVINLWGADFDAEGNLEAIYVTDSDSNASIGMKKYFVGVNSNGKVAISAKEIEEDNIGAQVLGLFTLSTGQDIWNQTNLEHHHHHH | ng/µL | 0
PRT-340 (protein) MTITSVWTKGVTPPTPEDFRENNEDVLHAPYLANQGWYDITKAFDGKDNLLCGAATAGNMLHWWFDQNKEEIERYLKKHPEKQKIIFNNQELFDVKAAIDTKDSQTNSKLFDYFRDKAFPNLSARQLGVMPDLVLDMFINGYYLNLGKTQSTDVNRPYQDKDKRGGIFDAVFTRGDQTTLLTARHDLKNKGLNEISDLIKQELTEGKALALSHTYANVSINHVINLWGADFDAEGNLEAIYVTDSDANASIGMKKYFVGRNAHGKVAISAKKIEGDNIGAQVLGLFTLSTGQDQWQKLS | ng/µL | 307
PRT-310 (protein) MQITSVWTKGVTPLTPEQFRENNEDVIHAPYLAHQGWYDITKAFDGKDNLLCGAATAGNMLHWWFDQNKTEIEAYLSKHPEKQKIIFNNQELFDLKAAIDTKDSQTNSQLFDYFRDKAFPNLSARQLGVMPDLVLDMFINGYYLNVFKTQSTDVNRPYQDKDKRGGIFDAVFTRGDQTTLLTARHDLKNKGLNDISTIIKQELTEGRALALSHTYANVSISHVINLWGADFDAEGNLEAIYVTDSDANASIGMKKYFVGRNAHGHVAISAKKIEGENIGAQVLGLFTLSSGKDQWQKLS | ng/µL | 0

These entries and their values trace back to patent US20250027068.
